For each entry below, report its pIC50 value.
Target: UniProt P05186
Sequence (P05186 whole entry, looked up): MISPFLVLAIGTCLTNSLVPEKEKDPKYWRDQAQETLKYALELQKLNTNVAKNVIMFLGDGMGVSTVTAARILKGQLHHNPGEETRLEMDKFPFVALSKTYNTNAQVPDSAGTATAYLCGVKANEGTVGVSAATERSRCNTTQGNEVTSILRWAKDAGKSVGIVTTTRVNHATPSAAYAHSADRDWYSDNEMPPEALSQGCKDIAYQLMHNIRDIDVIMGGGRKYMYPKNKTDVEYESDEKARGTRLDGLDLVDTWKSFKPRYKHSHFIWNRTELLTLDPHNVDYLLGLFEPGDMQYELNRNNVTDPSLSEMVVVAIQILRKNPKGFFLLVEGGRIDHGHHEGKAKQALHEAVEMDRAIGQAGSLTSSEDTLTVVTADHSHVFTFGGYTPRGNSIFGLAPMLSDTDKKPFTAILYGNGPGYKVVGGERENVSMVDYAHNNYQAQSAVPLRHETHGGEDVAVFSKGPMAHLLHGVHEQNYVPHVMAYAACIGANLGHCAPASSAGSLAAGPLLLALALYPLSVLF
The read-out pIC50 is expressed as -log10 of concentration in moles per litre.

Input line: Could you tell me which pIC50 is on file for CC(C)CCNC(=O)c1cc(-c2ccc(Cl)cc2Cl)n[nH]1 ?
Output line: 6.34

Input line: Same read-out for O=C(NCCO)c1cc(-c2ccc(Cl)cc2Cl)n[nH]1 ?
Output line: 7.35

Input line: Same read-out for CC(C)NC(=O)c1cc(-c2cc(F)c(Cl)cc2Cl)n[nH]1 ?
Output line: 5.31

Input line: Same read-out for O=C(c1cc(-c2cc(F)c(Cl)cc2Cl)n[nH]1)N(CCO)CCO ?
Output line: 6.90

* * *

For each entry below, report its pIC50 value.
Target: UniProtKB P05186
Experiment: potency against alkaline phosphatase TNAP – biochemical, luminescent, dose response, SAR follow-up (AID 1056)
Conditions: purified human TNAP, luminescent substrate read-out
The read-out pIC50 is expressed as -log10 of concentration in moles per litre.

Input line: Could you tell me which pIC50 is on file for COc1ccc2c(c1OC)C(=O)OC2CC(=O)c1ccc(O)c(O)c1 (configuration not stated) ?
Output line: 4.53

Input line: Same read-out for CN(C)C(=O)c1cc(-c2ccc(Cl)cc2Cl)n[nH]1 ?
Output line: 6.92

Input line: Same read-out for O=C(c1cc(-c2ccc(Cl)cc2Cl)n[nH]1)N(CCO)CCO ?
Output line: 7.33

Input line: Same read-out for CCN(CC)C(=O)c1cc(-c2ccc(Cl)cc2Cl)n[nH]1 ?
Output line: 6.55

Input line: Same read-out for CC(C)CNC(=O)c1cc(-c2ccc(Cl)cc2Cl)n[nH]1 ?
Output line: 7.09

Input line: Same read-out for O=C(c1cc(-c2ccc(Cl)cc2Cl)n[nH]1)N1CCN(CCO)CC1 ?
Output line: 6.43

Input line: Same read-out for COCCNC(=O)c1cc(-c2ccc(Cl)cc2Cl)n[nH]1 ?
Output line: 7.33

Input line: Same read-out for COc1cc(C)c(Cl)cc1S(=O)(=O)Nc1cccnc1 ?
Output line: 6.29

Input line: Same read-out for O=C1C2CC=CCC2C(=O)N1c1n[nH]c(CCc2ccccc2)n1 (configuration not stated) ?
Output line: 4.55

Input line: Same read-out for O=C1c2ccccc2C(=O)N1c1n[nH]c(Cc2ccccc2)n1 ?
Output line: 6.17

Input line: Same read-out for O=C(NCCCO)c1cc(-c2cc(F)c(Cl)cc2Cl)n[nH]1 ?
Output line: 7.25

Input line: Same read-out for O=C(NCCO)c1cc(-c2cc(F)c(Cl)cc2Cl)n[nH]1 ?
Output line: 7.00

Input line: Same read-out for CCOc1cc(C)c(Cl)cc1S(=O)(=O)Nc1cccnc1 ?
Output line: 6.16

Input line: Same read-out for CN1CCN(C(=O)c2cc(-c3ccc(Cl)cc3Cl)n[nH]2)CC1 ?
Output line: 6.08

Input line: Same read-out for O=C1C2CC=CCC2C(=O)N1c1n[nH]c(-c2ccco2)n1 (configuration not stated) ?
Output line: 5.33

Input line: Same read-out for O=C(Cn1cnc(Br)c1)c1ccc(O)c(O)c1 ?
Output line: 4.32

Input line: Same read-out for COc1cc(S(=O)(=O)Nc2cccnc2)c(OC)cc1C ?
Output line: 5.83

Input line: Same read-out for O=C1C2CCCCC2C(=O)N1c1n[nH]c(Cc2ccccc2)n1 (configuration not stated) ?
Output line: 5.80

Input line: Same read-out for O=C(NCCO)c1cc(-c2cc(F)c(F)cc2F)n[nH]1 ?
Output line: 6.87

Input line: Same read-out for O=C(c1cc(-c2ccc(Cl)cc2Cl)n[nH]1)N1CCCCCC1 ?
Output line: 5.84

Input line: Same read-out for O=C(NCCCCO)c1cc(-c2ccc(Cl)cc2Cl)n[nH]1 ?
Output line: 7.46

Input line: Same read-out for CC(C)NC(=O)c1cc(-c2ccc(Cl)cc2Cl)n[nH]1 ?
Output line: 7.29

Input line: Same read-out for COc1cccc(S(=O)(=O)Nc2cnc3ccccc3c2)c1 ?
Output line: 4.59

Input line: Same read-out for CCOc1ccc(Cl)cc1S(=O)(=O)Nc1cccnc1 ?
Output line: 6.27

Input line: Same read-out for O=C(CNc1nc2ccccc2[nH]1)c1ccc(O)c(O)c1 ?
Output line: 4.03

Input line: Same read-out for COc1ccc(F)cc1S(=O)(=O)Nc1cccnc1 ?
Output line: 5.89

Input line: Same read-out for CC(C)(C)NC(=O)c1cc(-c2ccc(Cl)cc2Cl)n[nH]1 ?
Output line: 6.40

Input line: Same read-out for COc1cc(C)c(C)cc1S(=O)(=O)Nc1cccnc1 ?
Output line: 5.77

Input line: Same read-out for O=C(c1cc(-c2ccc(Cl)cc2Cl)n[nH]1)N1CCOCC1 ?
Output line: 6.24

Input line: Same read-out for O=C1C2CC=CCC2C(=O)N1c1n[nH]c(-c2cccnc2)n1 (configuration not stated) ?
Output line: 4.98

Input line: Same read-out for O=C(NCCO)c1cc(-c2ccc(F)cc2F)n[nH]1 ?
Output line: 7.46

Input line: Same read-out for COc1ccc(OC)c(S(=O)(=O)Nc2cccnc2)c1 ?
Output line: 5.97
